- MEASUREMENT TARGET: TACE (Homo sapiens, UniProt P78536)
- Construct: purchased Immunex
- Sequence (P78536 215-824): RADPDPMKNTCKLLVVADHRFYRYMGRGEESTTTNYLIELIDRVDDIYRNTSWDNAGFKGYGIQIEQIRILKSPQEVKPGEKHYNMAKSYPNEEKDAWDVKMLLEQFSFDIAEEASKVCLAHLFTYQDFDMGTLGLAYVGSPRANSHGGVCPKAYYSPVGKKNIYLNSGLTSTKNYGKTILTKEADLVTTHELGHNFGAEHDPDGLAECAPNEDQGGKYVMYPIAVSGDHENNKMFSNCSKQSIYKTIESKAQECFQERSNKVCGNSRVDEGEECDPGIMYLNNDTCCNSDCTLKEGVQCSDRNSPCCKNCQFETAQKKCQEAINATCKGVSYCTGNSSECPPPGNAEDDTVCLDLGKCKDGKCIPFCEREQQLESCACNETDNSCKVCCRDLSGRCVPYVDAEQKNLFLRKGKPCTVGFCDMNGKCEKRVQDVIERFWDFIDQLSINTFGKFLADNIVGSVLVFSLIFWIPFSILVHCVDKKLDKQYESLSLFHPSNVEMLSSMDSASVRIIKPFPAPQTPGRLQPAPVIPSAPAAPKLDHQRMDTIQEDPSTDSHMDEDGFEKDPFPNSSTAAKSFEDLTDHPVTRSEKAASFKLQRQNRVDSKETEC
- ASSAY DETAILS: Procedure for Measuring TACE Inhibition
- Format: biochemical
- PROTOCOL CONDITIONS: read-out: TACE % inhibition at 1 micromolar
MEASUREMENT LABEL: inhibition at 1 µM (%)

The following molecules have reported results that may help.
CCCC(CCC)(C(=O)NO)S(=O)(=O)c1ccc(OC)cc1
24.9
COc1ccc(S(=O)(=O)C(C)(Cc2cccc(OCCN3CCOCC3)c2)C(=O)NO)cc1 (centres unmarked)
25.2

I: COc1ccc(S(=O)(=O)C(Cc2cccnc2)(CC2CCCCC2)C(=O)NO)cc1 (centres unmarked)
II: COc1ccc(SC(C(=O)NO)C(C)C)cc1 (centres unmarked)
III: COc1ccc(S(=O)(=O)C(C)(CC=Cc2ccccc2)C(=O)NO)cc1 (centres unmarked)
input: Order field: inhibition at 1 µM | Direction: descending (largest first) Use the labels to give the ranking in the order requested.
output: III, I, II
(III: 65%, I: 42.2%, II: 21%)
